Reference for the values: patent US10363239B2

- system under test: FLNA pentapeptide of SEQ ID NO: 1 (Bn-VAKGL) (Homo sapiens)
- procedure text: FITC-NLX-based FLNA screening assay (inhibition of FITC-naloxone binding to Bn-VAKGL on streptavidin plates)
- stated conditions: read-out: Percent Binding Inhibition, FLNA-binding compound 0.1 μM; 10 nM FITC-NLX
reported metric: inhibition at 0.1 µM
// unit must come after the numeric part

Below: 5 compounds and their reported inhibition at 0.1 µM.
| compound | inhibition at 0.1 µM |
| --- | --- |
| N#Cc1ccccc1S(=O)(=O)N1CCC2(CC1)OCCN2S(=O)(=O)c1ccccc1C#N | 42.3% |
| O=S(=O)(c1ccc(Br)cc1C(F)(F)F)N1CCC2(CC1)OCCN2S(=O)(=O)c1ccc(Br)cc1C(F)(F)F | 58.6% |
| COc1c2c(cc3c1C(CC(=O)CCc1ccc(O)cc1)[N+](C)(C)CC3)OCO2 (centres unmarked) | 42.8% |
| COc1ccc(N2CCN(CC(O)COC3CC(C)CCC3C(C)C)CC2)c(OC)c1 (centres unmarked) | 49.6% |
| CCOc1ccc(C(=O)CC2c3c(cc4c(c3OC)OCO4)CC[N+]2(C)C)cc1F (centres unmarked) | 45.5% |

*Q* What value of inhibition at 0.1 µM has been reported for the following compound? COc1ccccc1C(=O)CC1c2c(cc3c(c2OC)OCO3)CC[N+]1(C)C (centres unmarked)
*A* 49.4%

*Q* Form field: reported inhibition at 0.1 µM of COc1cccc(OC)c1CC(=O)CC1c2c(cc3c(c2OC)OCO3)CC[N+]1(C)C (centres unmarked)
*A* 52.8%

*Q* Which inhibition at 0.1 µM value belongs to COc1ccc(CC(=O)CC2c3c(cc4c(c3OC)OCO4)CC[N+]2(C)C)c(OC)c1 (centres unmarked) ?
*A* 42.9%
